Measured TGI, listed per entry.
# Tested on: RXF-631 renal
# method.summary: NCI tumour cell line growth inhibition, 48 h

> print(dat)
                                   compound    target.desc    result
1  Cn1c2[n+](c3nc(N)[nH]c(=O)c31)C1OC(C2)C(O)C1O (stereo not drawn)  RXF-631 renal  > 100 µM
2  COC(=O)C1C(=O)O[C@@H](c2ccc(OC)c(OC)c2OC)C1C(=O)OC (mixture of isomers)  RXF-631 renal  > 100 µM

# evaluate next
Look up TGI for this compound: CC1=C(C(=O)NCc2ccccc2)C(c2ccccc2C)C(C(=O)NCc2ccccc2)=C(C)N1 > 100 µM

====

# Test system: SN12C renal
# method.summary: NCI tumour cell line growth inhibition, 48 h
Measured TGI, listed per entry.
Quick note: give the figure in µM, leave out the unit.

Here are 3 compounds together with their reported answers.
> print(dat)
                                   compound  measurement.kind  quantitative.readout
1  CCCCCCCCCCCCCCCCCCOc1ccccc1CC(=O)OCC[N+](CC)(CC)CC               TGI                  5.68
2          NC(=O)CC1(O)C=C(Br)C(=O)C(Br)=C1               TGI                  23.4
3  Cc1ccc(OCC2=NC3S/C(=C/c4ccc([N+](=O)[O-])o4)C(=O)N3N2)cc1 (stereo not given)               TGI                    37

# evaluate next
Look up TGI for this compound: Cc1n[n+]([O-])c(C)cc1[N+](=O)[O-] 28.1

====

# System: MDA-N
# method.summary: NCI tumour cell line growth inhibition, 48 h
measurement.kind: TGI (µM)
Quick note: give the figure in µM, leave out the unit.

Here are 3 compounds together with their reported answers.
> print(dat)
                                   compound  measurement.kind  quantitative.readout
1            C[N+]12CCN(c3ccccc31)c1ccccc12               TGI                  8.56
2  Cc1cc2ccc(OC(=O)c3ccc(N=C(N)N)cc3)cc2oc1=O               TGI                  83.8
3  Cc1cc(C)c2c(=O)n(CC(O)CN3CCN(CCOCCO)CC3)sc2n1 (stereo not given)               TGI                  29.2

# evaluate next
API: value(readout= TGI, system= MDA-N, query= CCOC(=O)N(C)C(=C(F)F)C(F)(F)F ) 40.2

====

# Tested on: OVCAR-4 ovarian
# method.summary: NCI tumour cell line growth inhibition, 48 h
measurement.kind: TGI (µM)
Quick note: give the figure in µM, leave out the unit.

molecule	target.desc	measurement.kind	quantitative.readout
C=C1C(=O)O[C@H]2[C@H]1CC/C(Cn1cc(-c3cccc(Cl)c3)nn1)=C\CC[C@@]1(C)O[C@@H]21	OVCAR-4 ovarian	TGI	2.44
Cc1ccc(OCC2=NC3S/C(=C/c4ccc([N+](=O)[O-])o4)C(=O)N3N2)cc1 (stereo not drawn)	OVCAR-4 ovarian	TGI	7.86
CCN(CC)c1ccc(C2Nc3ccc4ccccc4c3C3=C2C(=O)CCC3)cc1 (stereo not drawn)	OVCAR-4 ovarian	TGI	46.4

# evaluate next
Look up TGI for this molecule: C[C@@H](NC(=O)c1ncnc(N)c1Cl)c1ncc(C(=O)Nc2cc(C(F)(F)F)c(Cl)cn2)s1 73.3
